tgt: CYP2C9 (Homo sapiens)
Sequence (P11712 whole entry): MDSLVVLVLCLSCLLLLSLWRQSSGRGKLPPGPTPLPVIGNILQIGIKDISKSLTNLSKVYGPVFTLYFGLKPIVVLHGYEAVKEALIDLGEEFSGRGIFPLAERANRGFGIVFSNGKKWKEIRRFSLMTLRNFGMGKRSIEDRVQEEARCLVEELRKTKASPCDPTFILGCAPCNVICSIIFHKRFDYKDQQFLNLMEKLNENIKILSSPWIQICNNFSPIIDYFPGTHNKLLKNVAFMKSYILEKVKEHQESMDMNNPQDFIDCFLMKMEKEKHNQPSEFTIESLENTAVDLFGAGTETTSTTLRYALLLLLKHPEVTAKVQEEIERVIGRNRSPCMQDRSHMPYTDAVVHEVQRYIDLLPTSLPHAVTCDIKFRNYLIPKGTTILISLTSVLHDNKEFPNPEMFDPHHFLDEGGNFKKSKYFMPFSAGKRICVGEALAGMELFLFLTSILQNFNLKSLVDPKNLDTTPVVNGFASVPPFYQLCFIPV
measurement-notes: Inhibition of CYP2C9 (unknown origin) at 1 uM relative to control
Format: ADME
observation-type: inhibition at 1 µM (%)
Your answer is read as %, so omit the unit and give the number.

Item `[2H]C([2H])([2H])NC(=O)c1nnc(NC(=O)C2CC2)cc1Nc1cccc(C(=O)Nc2ccc(-c3ncn(C4CC4)n3)cc2)c1OC` has what recorded inhibition at 1 µM?
7

###

measurement-notes: Stability in mouse liver microsomes assessed as parent compound remaining measured after 60 mins
Format: ADME, Microsome
condition-description: read-out: Stability
Note to self: remaining at 1 h under 30% means y, ties and anything higher get n.

Could you please tell me whether remaining at 1 h recorded for `[2H]C([2H])([2H])NC(=O)c1nnc(NC(=O)C2CC2)cc1Nc1cccc(C(=O)Nc2ccc(N3CCCCC3=O)cc2F)c1OC` is less than 30%?
n

Could you please tell me whether remaining at 1 h recorded for `[2H]C([2H])([2H])NC(=O)c1nnc(NC(=O)C2CC2)cc1Nc1cccc(C(=O)Nc2ccc(-n3ccccc3=O)cc2)c1OC` is less than 30%?
n

Could you please tell me whether remaining at 1 h recorded for `[2H]C([2H])([2H])NC(=O)c1nnc(Nc2ccc(F)cn2)cc1Nc1cccc(C(=O)Nc2ccc(N3CCCCC3=O)cc2)c1OC` is less than 30%?
y

Could you please tell me whether remaining at 1 h recorded for `[2H]C([2H])([2H])NC(=O)c1nnc(NC(=O)C2CC2)cc1Nc1cccc(C(=O)Nc2ccc(N3CCCCCC3=O)cc2)c1OC` is less than 30%?
y

Could you please tell me whether remaining at 1 h recorded for [2H]C([2H])([2H])NC(=O)c1nnc(NC(=O)C2CC2)cc1Nc1cccc(C(=O)Nc2ccc(C3CCCNC3=O)cc2)c1OC (configuration not stated) is less than 30%?
n

Could you please tell me whether remaining at 1 h recorded for `[2H]C([2H])([2H])NC(=O)c1nnc(NC(=O)C2CC2)cc1Nc1cccc(C(=O)Nc2ccc(N3CCCCS3(=O)=O)cc2)c1OC` is less than 30%?
y

Could you please tell me whether remaining at 1 h recorded for `[2H]C([2H])([2H])NC(=O)c1nnc(NC(=O)C2CC2)cc1Nc1cccc(C(=O)Nc2ccc(N3CCCC3=O)cc2)c1OC` is less than 30%?
n

Attribution: ChEMBL document CHEMBL5252617
